Kindly supply the reported kon values for the records listed here.
Target: T1, monkey C5-mmh (monkey, UniProt P01031 19-1676 (human entry), limits assumed)
T1 construct: Recombinant monkey C5 with a C-terminal myc-myc-hexahistidine tag
T1 chain: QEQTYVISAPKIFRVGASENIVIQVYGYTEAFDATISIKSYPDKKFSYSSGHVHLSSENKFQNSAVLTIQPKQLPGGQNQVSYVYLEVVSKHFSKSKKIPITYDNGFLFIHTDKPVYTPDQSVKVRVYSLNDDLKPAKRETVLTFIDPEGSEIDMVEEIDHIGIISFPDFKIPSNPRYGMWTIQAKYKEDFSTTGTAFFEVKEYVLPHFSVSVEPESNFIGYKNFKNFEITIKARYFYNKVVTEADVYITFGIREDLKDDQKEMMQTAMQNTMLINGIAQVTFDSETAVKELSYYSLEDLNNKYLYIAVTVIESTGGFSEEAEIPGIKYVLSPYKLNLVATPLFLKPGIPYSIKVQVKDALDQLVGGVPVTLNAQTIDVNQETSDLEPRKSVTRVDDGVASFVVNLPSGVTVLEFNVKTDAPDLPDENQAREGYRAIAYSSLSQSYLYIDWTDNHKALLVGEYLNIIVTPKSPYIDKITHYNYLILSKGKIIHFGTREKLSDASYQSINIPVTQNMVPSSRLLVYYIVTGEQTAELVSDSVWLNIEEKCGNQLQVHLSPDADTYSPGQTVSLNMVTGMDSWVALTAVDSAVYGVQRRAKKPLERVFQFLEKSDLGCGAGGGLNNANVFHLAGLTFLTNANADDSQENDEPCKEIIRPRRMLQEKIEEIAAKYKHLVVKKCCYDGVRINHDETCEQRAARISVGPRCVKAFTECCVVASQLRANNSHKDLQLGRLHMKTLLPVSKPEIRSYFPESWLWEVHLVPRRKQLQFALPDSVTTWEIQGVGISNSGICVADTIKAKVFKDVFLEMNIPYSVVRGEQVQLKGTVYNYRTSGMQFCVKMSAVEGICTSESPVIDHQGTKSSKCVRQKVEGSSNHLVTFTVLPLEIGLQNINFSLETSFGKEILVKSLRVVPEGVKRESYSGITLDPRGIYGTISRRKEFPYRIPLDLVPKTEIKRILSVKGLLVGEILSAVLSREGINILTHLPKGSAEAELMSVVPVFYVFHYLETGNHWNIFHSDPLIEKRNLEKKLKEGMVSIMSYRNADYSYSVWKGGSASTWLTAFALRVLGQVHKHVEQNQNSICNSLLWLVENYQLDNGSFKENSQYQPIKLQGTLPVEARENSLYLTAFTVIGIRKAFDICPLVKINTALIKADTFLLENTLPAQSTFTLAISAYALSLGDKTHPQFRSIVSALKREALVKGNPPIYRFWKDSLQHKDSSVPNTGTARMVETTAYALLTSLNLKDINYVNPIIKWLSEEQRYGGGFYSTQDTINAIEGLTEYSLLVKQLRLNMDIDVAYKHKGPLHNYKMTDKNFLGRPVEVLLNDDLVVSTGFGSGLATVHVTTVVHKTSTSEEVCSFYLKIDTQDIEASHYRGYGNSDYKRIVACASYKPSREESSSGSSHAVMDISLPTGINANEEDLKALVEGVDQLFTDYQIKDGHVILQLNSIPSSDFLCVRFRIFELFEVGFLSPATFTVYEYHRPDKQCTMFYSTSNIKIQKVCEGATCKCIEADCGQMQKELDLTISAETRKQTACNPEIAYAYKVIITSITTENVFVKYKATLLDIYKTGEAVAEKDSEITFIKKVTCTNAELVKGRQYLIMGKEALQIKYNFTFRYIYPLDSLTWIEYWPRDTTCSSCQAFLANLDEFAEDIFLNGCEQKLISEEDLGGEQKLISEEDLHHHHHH
Assay: SPR, mAb captured via anti-hFc, 37C
State the answer as a number, implicitly in M⁻¹ s⁻¹.

kon reading for H4H12159P (antibody, human IgG4, V domains shown, Human IgG4 Fc with S108P hinge mutation (H4H)) VH: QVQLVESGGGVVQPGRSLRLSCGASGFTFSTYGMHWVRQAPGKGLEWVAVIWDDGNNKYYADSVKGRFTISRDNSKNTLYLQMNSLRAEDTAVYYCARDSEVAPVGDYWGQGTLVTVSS VL: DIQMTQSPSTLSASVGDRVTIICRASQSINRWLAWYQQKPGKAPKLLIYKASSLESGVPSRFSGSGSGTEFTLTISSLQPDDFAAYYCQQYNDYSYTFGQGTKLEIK : 412000

Noted for H4H12171P (antibody, human IgG4, V domains shown, Human IgG4 Fc with S108P hinge mutation (H4H)) VH: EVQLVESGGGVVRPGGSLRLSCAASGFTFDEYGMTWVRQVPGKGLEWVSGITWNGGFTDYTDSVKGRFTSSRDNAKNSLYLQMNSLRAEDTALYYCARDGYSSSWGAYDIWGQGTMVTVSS VL: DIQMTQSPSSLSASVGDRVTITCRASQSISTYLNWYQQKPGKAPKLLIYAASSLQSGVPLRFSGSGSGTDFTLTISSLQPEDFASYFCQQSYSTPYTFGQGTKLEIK : its kon reads 556000

Record H4H11683N (antibody, V domains shown, also called H2M11683N) VH: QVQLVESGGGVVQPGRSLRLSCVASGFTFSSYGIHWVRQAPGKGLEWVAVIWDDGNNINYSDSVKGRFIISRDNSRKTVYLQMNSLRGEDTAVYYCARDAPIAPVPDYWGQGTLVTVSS VL: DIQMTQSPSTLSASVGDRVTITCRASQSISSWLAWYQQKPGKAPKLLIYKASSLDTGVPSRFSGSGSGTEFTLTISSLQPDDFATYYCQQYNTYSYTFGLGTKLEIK , field kon: 535000

Value of measured kon for the entry H4H12166P5 (antibody, human IgG4, V domains shown, Histidine-mutated CDR variant of H4H12166P; human IgG4 Fc with S108P) VH: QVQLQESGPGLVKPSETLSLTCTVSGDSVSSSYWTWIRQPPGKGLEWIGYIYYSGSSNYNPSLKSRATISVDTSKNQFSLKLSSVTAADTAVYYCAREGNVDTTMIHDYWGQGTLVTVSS VL: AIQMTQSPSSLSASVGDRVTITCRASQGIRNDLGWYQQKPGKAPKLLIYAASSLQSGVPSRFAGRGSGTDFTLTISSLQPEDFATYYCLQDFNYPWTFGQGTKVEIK : 150000

Reported kon of H4H12166P7 (antibody, human IgG4, V domains shown, Histidine-mutated CDR variant of H4H12166P; human IgG4 Fc with S108P) VH: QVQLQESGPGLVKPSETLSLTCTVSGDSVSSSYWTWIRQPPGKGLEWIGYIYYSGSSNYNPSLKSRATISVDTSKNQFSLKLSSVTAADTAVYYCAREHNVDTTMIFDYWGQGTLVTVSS VL: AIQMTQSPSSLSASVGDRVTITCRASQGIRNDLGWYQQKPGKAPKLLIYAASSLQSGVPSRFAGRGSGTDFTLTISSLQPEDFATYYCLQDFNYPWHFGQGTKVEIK : 125000

The measured kon associated with H4H12164P (antibody, human IgG4, V domains shown, Human IgG4 Fc with S108P hinge mutation (H4H)) VH: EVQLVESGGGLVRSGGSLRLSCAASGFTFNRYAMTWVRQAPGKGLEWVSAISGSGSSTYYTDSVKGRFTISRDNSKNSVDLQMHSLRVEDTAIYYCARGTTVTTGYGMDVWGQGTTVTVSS VL: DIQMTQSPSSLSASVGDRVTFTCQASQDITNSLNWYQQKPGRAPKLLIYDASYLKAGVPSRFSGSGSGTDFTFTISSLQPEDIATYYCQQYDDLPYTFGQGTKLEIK reads 186000

Item: H4H12166P10 (antibody, human IgG4, V domains shown, Histidine-mutated CDR variant of H4H12166P; human IgG4 Fc with S108P) VH: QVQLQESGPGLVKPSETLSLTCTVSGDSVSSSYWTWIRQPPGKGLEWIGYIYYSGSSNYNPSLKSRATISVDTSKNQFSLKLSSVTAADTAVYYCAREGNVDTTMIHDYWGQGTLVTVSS VL: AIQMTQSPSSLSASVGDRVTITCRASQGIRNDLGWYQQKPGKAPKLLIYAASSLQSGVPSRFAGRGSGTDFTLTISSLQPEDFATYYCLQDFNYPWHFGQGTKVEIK | kon: 66000

H4H12168P (antibody, human IgG4, V domains shown, Human IgG4 Fc with S108P hinge mutation (H4H)) VH: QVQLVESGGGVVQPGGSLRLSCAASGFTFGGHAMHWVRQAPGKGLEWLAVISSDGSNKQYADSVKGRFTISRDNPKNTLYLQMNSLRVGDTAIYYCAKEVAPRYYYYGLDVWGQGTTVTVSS VL: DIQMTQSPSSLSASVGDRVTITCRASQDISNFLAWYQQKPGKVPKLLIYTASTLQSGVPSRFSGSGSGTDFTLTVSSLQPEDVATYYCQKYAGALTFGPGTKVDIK yielded kon of 53300

Record H4H12166P4 (antibody, human IgG4, V domains shown, Histidine-mutated CDR variant of H4H12166P; human IgG4 Fc with S108P) VH: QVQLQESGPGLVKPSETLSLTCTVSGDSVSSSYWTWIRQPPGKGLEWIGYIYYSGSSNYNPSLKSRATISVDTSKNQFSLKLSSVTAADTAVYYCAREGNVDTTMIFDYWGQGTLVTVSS VL: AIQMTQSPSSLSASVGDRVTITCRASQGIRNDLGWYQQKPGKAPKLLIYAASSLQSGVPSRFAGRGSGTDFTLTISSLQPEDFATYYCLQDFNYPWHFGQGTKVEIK , field kon: 223000

The binder listed as H4H12169P (antibody, human IgG4, V domains shown, Human IgG4 Fc with S108P hinge mutation (H4H)) VH: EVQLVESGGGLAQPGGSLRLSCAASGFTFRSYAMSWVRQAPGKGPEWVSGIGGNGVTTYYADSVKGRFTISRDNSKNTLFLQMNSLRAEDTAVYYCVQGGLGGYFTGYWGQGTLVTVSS VL: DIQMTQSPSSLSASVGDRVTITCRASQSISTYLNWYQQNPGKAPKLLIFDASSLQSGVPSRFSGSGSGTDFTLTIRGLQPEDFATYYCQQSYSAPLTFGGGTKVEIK has a reported kon of 251000
